- assayTarget: UniProtKB P10591
- Sequence (P10591 whole entry): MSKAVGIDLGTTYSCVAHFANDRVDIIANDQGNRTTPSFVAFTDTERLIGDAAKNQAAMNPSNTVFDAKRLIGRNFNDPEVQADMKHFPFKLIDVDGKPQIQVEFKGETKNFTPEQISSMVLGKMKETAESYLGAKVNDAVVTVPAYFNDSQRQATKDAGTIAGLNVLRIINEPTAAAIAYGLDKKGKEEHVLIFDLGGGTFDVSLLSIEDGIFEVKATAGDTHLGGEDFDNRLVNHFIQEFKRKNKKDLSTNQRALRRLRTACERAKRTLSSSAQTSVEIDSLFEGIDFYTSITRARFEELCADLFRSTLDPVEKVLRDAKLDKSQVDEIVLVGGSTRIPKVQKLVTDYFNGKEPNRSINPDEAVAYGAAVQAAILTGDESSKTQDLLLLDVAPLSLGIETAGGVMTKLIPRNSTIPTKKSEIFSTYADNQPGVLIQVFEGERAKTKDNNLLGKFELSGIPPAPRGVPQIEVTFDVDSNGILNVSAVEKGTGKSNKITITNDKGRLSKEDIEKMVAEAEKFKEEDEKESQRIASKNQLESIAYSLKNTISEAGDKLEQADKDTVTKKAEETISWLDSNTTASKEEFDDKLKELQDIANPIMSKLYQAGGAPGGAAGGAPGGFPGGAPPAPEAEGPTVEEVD
- measurementDescription: Effect on Saccharomyces cerevisiae Ssa1 ATPase activity assessed as fold change in Kcat at 100 uM in presence of J-domain containing yeast Ydj1 co-chaperone relative to control
Listed next: entries and their corresponding fold change (FC).
assayReadout: fold change (FC)

compound: CCCCCCN(C(=O)CCCCCN1C(=O)NC(c2ccc(-c3ccccc3)cc2)C(C(=O)OCc2ccccc2)=C1C)C(C(=O)NCCCC)C1CCCCC1 (stereo not drawn)
dataValue: -1.3

compound: CCOC(=O)C1=C(C)N(Cc2ccccc2)C(=O)NC1c1ccccc1OS(=O)(=O)c1ccccc1[N+](=O)[O-] (stereo not drawn)
dataValue: -1.3

compound: COC(=O)C1=C(Cc2ccccc2)NC(=O)NC1c1ccc2ccccc2c1 (stereo not drawn)
dataValue: -1.3
